# Species on record: Homo sapiens
# experiment_description: Selectivity index, ratio of Ki for CB1 receptor (unknown origin) to Ki for CB2 receptor (unknown origin) by competitive binding assay
assay_metric: Ratio Ki
Give the figure only, with no unit attached.

Worked cases, Ratio Ki given:
| chemical_string | Ratio Ki |
| --- | --- |
| O=C1/C(=C/c2cn(Cc3ccc(F)cc3)c3ncccc23)N2CCC1CC2 | 9.2 |
| O=C1/C(=C/c2cn(Cc3ccc(Cl)cc3)c3ncccc23)N2CCC1CC2 | 6.1 |
| O=C1/C(=C/c2cn(Cc3ccccc3)c3ncccc23)N2CCC1CC2 | 26.3 |

Consider the additional compound presented here.
Can you share its Ratio Ki? I mean this compound: O=C1/C(=C/c2cn(Cc3ccc(Br)cc3)c3ncccc23)N2CCC1CC2 1.8

* * *

# subject_of_test: Cannabinoid receptor 1 (Homo sapiens)
# Sequence (P21554 whole entry): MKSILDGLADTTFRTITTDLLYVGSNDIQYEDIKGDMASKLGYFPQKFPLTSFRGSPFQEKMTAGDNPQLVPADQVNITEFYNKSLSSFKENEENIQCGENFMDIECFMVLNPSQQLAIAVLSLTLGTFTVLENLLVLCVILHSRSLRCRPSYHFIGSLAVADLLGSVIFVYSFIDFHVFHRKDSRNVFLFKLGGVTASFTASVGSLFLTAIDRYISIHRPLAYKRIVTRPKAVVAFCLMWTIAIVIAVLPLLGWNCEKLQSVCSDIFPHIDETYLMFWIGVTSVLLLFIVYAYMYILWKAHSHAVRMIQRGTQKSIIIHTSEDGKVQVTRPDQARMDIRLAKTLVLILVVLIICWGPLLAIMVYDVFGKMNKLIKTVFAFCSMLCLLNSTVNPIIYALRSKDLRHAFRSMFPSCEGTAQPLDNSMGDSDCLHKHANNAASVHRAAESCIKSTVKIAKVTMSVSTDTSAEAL
Listed next: entries and their corresponding Ki.
Please state the figure in nM; there is no need to write the unit.

Worked cases, Ki given:
| chemical_string | assay_metric | output_unit | result |
| --- | --- | --- | --- |
| O=C1/C(=C/c2cn(Cc3ccc(F)cc3)c3ncccc23)N2CCC1CC2 | Ki | nM | 218 |
| O=C1/C(=C/c2cn(Cc3ccc(Br)cc3)c3ncccc23)N2CCC1CC2 | Ki | nM | 1110 |

Checklist item: Ki tested on Cannabinoid receptor 1 (Homo sapiens), entry O=C1/C(=C/c2cn(Cc3ccc(Cl)cc3)c3ncccc23)N2CCC1CC2 , value? 704

Checklist item: Ki tested on Cannabinoid receptor 1 (Homo sapiens), entry O=C1/C(=C/c2cn(Cc3ccccc3)c3ncccc23)N2CCC1CC2 , value? 2900
